System: Staphylococcus epidermidis
Method: Antibacterial activity was determined against Staphylococcus epidermidis ATCC 12228 (Gram-positive)
Format: functional
Recorded endpoint: MIC (µg/mL)
Reply with just the number (in µg/mL).

Consider the reported MIC for these compounds:
* CC(C)(C)NC(=O)C[n+]1ccc(SCC2=C(C(=O)O)N3C(=O)[C@@H](NC(=O)/C(=N\OC4CCCC4)c4csc(N)n4)[C@H]3CO2)cc1.O=S(=O)([O-])O | 0.39
* Nc1nc(/C(=N/OC2CCCC2)C(=O)N[C@@H]2C(=O)N3C(C(=O)O)=C(CSc4cc[n+](CC(=O)N5CCC(O)CC5)cc4)OC[C@H]23)cs1.O=S(=O)([O-])O | 0.39
* C=CC[n+]1ccc(SCC2=C(C(=O)O)N3C(=O)[C@@H](NC(=O)/C(=N\OC4CCCC4)c4csc(N)n4)[C@H]3CO2)cc1.O=S(=O)([O-])O | 0.05

Next up:
Value lookup for MIC; key = Nc1nc(/C(=N/OC2CCCC2)C(=O)N[C@@H]2C(=O)N3C(C(=O)O)=C(CSc4cc[n+](CC(=O)N5CCOCC5)cc4)OC[C@H]23)cs1.O=S(=O)([O-])O
0.2
